- TEST TARGET: Sirt3 (Homo sapiens, UniProt Q9NTG7)
- Sequence (Q9NTG7 1-399): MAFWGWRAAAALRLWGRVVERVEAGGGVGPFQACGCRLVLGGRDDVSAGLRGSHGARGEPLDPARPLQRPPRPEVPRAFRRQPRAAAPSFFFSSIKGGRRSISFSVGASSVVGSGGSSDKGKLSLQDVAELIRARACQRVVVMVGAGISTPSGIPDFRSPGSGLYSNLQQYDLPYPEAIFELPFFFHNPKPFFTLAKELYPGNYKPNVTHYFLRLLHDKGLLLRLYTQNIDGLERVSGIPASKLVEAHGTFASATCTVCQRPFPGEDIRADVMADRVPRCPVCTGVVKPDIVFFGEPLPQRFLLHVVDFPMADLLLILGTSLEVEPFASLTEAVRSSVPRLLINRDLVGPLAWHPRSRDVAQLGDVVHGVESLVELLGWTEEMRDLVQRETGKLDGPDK
pIC50: −log10 of the molar value.
MEASURED ATTRIBUTE: pIC50

compound="O=C(O)CCC(=S)NCCCCC(NC(=O)OCc1ccccc1)C(=O)Nc1ccccc1 (centres unmarked) [Compound 3a, reference compound]" measured_attribute=pIC50 data_value="< 3.59"

We now examine a further compound.
Asked: Look at this compound and give its reported pIC50. O=C(O)CCCC(=S)NCCCC[C@H](NC(=O)OCc1ccccc1)C(=O)Nc1ccccc1
Given back: < 3.59
